- target.entity: T1, hIL-6R on hIL-6-responsive human cells (XG-1 myeloma line, HepG2 hepatoma line) (human, UniProt P08887 20-468)
- T1 sequence (looked up): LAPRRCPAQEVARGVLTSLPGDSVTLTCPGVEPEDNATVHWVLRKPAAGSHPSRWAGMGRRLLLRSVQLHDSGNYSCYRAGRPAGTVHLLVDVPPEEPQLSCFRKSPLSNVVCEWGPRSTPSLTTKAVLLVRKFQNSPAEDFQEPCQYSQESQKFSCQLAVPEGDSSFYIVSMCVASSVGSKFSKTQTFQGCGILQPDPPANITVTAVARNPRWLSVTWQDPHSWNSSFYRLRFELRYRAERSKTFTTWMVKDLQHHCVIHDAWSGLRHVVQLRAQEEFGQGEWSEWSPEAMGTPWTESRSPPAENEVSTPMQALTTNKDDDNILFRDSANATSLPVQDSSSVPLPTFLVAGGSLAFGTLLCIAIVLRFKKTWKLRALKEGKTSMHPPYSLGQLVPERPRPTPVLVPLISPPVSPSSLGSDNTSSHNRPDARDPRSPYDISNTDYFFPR
- assay.info: cell-based or functional assay
assay.endpoint: HepG2/STAT3 luciferase assay IC50 (pM)
Answers are plain numbers, in pM.

binder	result.unit	HepG2/STAT3 luciferase assay IC50
VV6A9-5 hIgG1 (antibody, V domains shown, Human IgG1 constant region) VH: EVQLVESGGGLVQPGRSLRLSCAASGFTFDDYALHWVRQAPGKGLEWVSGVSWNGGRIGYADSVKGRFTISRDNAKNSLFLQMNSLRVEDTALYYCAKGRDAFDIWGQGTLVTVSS VL: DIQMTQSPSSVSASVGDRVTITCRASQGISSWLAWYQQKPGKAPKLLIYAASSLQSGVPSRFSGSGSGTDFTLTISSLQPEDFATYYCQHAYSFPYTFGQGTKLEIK	pM	204
VQ1G4-21 hIgG4 (antibody, V domains shown, Human IgG4 constant region) VH: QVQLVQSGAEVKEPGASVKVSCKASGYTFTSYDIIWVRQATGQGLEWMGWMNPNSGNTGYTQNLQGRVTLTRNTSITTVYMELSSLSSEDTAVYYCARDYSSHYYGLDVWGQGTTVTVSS VL: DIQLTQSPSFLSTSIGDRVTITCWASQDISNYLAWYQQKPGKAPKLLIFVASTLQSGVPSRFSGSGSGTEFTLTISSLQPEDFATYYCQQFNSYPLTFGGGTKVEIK	pM	528
VQ8F11-21 (antibody, V domains shown, Human variable regions with mouse constant region; also called VQ8F11-21 mIgG2a) VH: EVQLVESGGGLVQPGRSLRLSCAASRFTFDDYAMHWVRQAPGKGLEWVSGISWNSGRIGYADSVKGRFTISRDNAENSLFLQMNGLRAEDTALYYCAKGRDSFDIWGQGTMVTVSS VL: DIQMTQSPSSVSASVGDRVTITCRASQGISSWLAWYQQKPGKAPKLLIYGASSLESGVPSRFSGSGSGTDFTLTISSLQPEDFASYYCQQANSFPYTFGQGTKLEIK	pM	135
VV6A9-5 (antibody, V domains shown, Human variable regions with mouse constant region; also called VV6A9-5 mIgG2a) VH: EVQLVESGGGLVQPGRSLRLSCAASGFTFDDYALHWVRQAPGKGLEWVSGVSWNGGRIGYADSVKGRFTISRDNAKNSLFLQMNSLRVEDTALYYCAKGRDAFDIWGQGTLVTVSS VL: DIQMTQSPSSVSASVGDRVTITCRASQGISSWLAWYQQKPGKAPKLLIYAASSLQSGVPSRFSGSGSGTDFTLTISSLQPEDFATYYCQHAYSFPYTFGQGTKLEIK	pM	188

Please look at the following binder next.
Which HepG2/STAT3 luciferase assay IC50 value belongs to VQ8F11-21 hIgG4 (antibody, V domains shown, Human IgG4 (wild-type) constant region) VH: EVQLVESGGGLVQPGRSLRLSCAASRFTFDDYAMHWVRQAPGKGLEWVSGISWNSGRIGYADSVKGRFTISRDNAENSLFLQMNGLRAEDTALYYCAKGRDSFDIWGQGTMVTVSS VL: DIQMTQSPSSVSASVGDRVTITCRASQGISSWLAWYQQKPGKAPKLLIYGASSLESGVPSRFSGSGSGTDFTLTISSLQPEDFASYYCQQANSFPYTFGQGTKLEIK ? 228
